For each record, write down the corresponding pEC50.
Target: GnRH receptor (Homo sapiens, UniProt P30968)
Sequence (P30968 1-328): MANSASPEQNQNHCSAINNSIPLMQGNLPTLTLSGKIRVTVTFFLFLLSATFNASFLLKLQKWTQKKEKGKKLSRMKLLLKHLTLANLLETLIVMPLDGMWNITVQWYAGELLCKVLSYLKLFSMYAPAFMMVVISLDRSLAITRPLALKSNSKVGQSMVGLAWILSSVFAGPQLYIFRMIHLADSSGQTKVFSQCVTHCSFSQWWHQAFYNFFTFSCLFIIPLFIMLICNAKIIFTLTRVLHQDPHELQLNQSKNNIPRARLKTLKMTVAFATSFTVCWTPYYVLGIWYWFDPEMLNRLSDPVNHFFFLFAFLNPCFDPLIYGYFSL
Assay: Functional reporter gene assay (luciferase) in LTK cells carrying GnRH receptors, triptorelin stimulation
Assay type: cell-based
Parameters: expressed in transfected cells; host or cells: LTK cells (ATCC No. CCL-1.3), stably transfected, with CRE / CMV minimal promoter luciferase reporter
Details: inhibition of triptorelin/Rolipram-stimulated luciferase reporter
Numbers only, as −log10 of the molar value.

Provide pEC50 for all items below, preserving their order.
1. CC[C@H](C)[C@H](NC(=O)OCc1ccccc1)C(=O)N[C@]1(C(=O)N[C@@H](CC(C)C)C(N)=O)CCc2[nH]c3c(Cl)cc(Cl)cc3c2C1
2. CC[C@H](C)[C@H](NC(=O)OCc1ccccc1)C(=O)N[C@]1(C(=O)N[C@@H](CC2CCCCC2)C(N)=O)CCc2[nH]c3c(Cl)cc(Cl)cc3c2C1
3. CC[C@H](C)[C@H](NC(=O)[C@@]1(NC(=O)[C@@H](NC(=O)OCc2ccccc2)[C@@H](C)CC)CCc2[nH]c3c(Cl)cc(Cl)cc3c2C1)C(=O)O

Output:
1. 7.85
2. 6.55
3. 6.75

---

molecular target: UniProtKB P30968; assay: Receptor binding assay with 125I-triptorelin on transfected LTK cells; conditions: competition with 125I-triptorelin, whole LTK cells, 60 minutes at 37° C.
metric-name: EC50 (nM)
Give bare numbers, in nM.

As a guide, the following entries are already answered.
| smiles-representation | numeric-value |
| --- | --- |
| CC(C)C[C@H](NC(=O)[C@@]1(NC(=O)[C@H](CC(C)C)NC(=O)OCc2ccccc2)CCc2[nH]c3c(Cl)cc(Cl)cc3c2C1)C(N)=O | 77 |
| CC[C@H](C)[C@H](NC(=O)OCc1ccccc1)C(=O)N[C@]1(C(=O)N[C@H](C(N)=O)C(C)(C)C)CCc2[nH]c3c(Cl)cc(Cl)cc3c2C1 | 288 |

Now, please, on to the next molecule.
Task: Specify measured EC50 for "CC[C@H](C)[C@H](NC(=O)OCc1ccccc1)C(=O)N[C@]1(C(=O)N[C@H](C(N)=O)C(C)C)CCc2[nH]c3c(F)cc(F)cc3c2C1" .
Output: 332

---

Target: GnRH receptor (Homo sapiens)
Sequence (P30968 1-328): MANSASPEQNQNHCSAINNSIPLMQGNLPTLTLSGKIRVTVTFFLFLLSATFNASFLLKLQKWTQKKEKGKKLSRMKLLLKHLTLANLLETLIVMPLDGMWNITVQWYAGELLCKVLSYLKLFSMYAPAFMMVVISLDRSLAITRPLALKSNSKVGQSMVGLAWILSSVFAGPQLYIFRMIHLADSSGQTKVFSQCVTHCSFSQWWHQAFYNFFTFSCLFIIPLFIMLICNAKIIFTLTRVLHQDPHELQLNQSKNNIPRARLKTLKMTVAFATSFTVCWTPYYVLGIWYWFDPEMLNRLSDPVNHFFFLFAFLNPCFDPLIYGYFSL
Assay: Ca2+ release, human
Conditions: read-out: Ca^2+ Release Human IC50
metric-name: pIC50
One number for each entry, as −log10 of the molar value.

Take a look at these entries with their results.
| compound | system-tested | metric-name | numeric-value |
| --- | --- | --- | --- |
| c1ccc(CCCC2(CNCc3ccccn3)CCc3[nH]c4ccccc4c3C2)cc1 (stereo not shown) | GnRH receptor (Homo sapiens) | pIC50 | 5.52 |
| CC[C@H](C)[C@H](NC(=O)OCc1ccccc1)C(=O)N[C@]1(C(=O)N[C@H](C(N)=O)C(C)C)CCc2[nH]c3ccc(Cl)cc3c2C1 [Compound 148a] | GnRH receptor (Homo sapiens) | pIC50 | 6.85 |
| CC[C@H](C)[C@H](NC(=O)[C@@]1(NC(=O)[C@@H](NC(=O)OCc2ccccc2)[C@@H](C)CC)CCc2[nH]c3ccccc3c2C1)C(N)=O | GnRH receptor (Homo sapiens) | pIC50 | 5.82 |

Consider the record given below.
Task: Please report pIC50 for the following compound: CC(C)[C@H](NC(=O)[C@]1(NC(=O)Cc2c[nH]c3ccccc23)CCc2[nH]c3ccccc3c2C1)C(N)=O [Compound 164b]
Output: 5.19

Hello, the source for this data is patent US7122570B2, in case you need it.
